growth inhibition overview
# assayComment: NCI Yeast Anticancer Drug Screen. Data for the mlh1 rad18 strain (AID 175)
# testContext: S. cerevisiae mlh1 rad18 strain growth inhibition; at 50.0 µM; stronger effect = higher value
About 79,000 compounds went through this panel and 15% of them were active in at least one assay; those are over-represented in the sample as a whole.
Give just the numeric value; % need not be written.

Here are 5 compounds together with their reported answers.
> print(dat)
                           compound  value
1                  CC1=NN(C)C(=O)C1   9.25
2           CC(C)CNc1ncnc2[nH]ncc12   -6.2
3  Cc1cncc(NS(=O)(=O)c2ccc(N)cc2)n1    6.9
4               C1CCN(SN2CCCCC2)CC1    5.7
5             O=C1CCCN(Cc2ccccc2)C1   9.45

Q: Form field: reported growth inhibition of CCOC(=O)CCN(CC1CC=CCC1)c1cc(O)c2c(c1O)C(=O)c1ccccc1C2=O (stereo not given)
Ans: -9.85

Q: Form field: reported growth inhibition of N=C(CNC(=O)OCc1ccccc1)N1CCCC1C(=O)O (stereo not given)
Ans: -6.95

Q: Form field: reported growth inhibition of CC(O)COC1CCCCC1 (stereo not given)
Ans: -0.95

Q: Form field: reported growth inhibition of `COc1cc(NCCCCCCN(C)C)c2ncccc2c1`
Ans: -14.8

Q: Form field: reported growth inhibition of `C=CCCCCCCCCC(=O)NCCCN1CCOCC1`
Ans: 94.7

Q: Form field: reported growth inhibition of CC1(CO)COC(c2ccccc2)=N1 (stereo not given)
Ans: 0.75

Q: Form field: reported growth inhibition of CC1CCCCC12OCCO2 (stereo not given)
Ans: -3.75

Q: Form field: reported growth inhibition of CC1(C)OCC2OC=CC(=O)C2O1 (stereo not given)
Ans: -68.5

###

# assayComment: NCI Yeast Anticancer Drug Screen. Data for the sgs1 mgt1 strain (AID 161);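 note: 0% = growth of cultures given vehicle only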
# testContext: S. cerevisiae sgs1 mgt1 strain, at 50.0 µM
This is part of a sample that, as a whole, favours compounds with a hit. Of some 79,000 tested, about 15% had one in any assay. Calls of active or inactive are those of the source. No stated cut-off is given here; in the data, active means growth inhibition above about 70%; inactive means the rest.
// classify into True (active), False (inactive)

> print(dat)
                                   compound  label
1  O=C(Cc1ccccc1)OCC(=O)c1ccc(-c2ccccc2)cc1  False
2          COc1ccc(NC=O)c(C(=O)CCNC(C)=O)c1  False
3     COC(=O)/C=C/c1cc(=O)n2c(nc3ccccc32)s1  False
4                     NOCc1nnc(Nc2ccccc2)s1  False
5                    COC(=O)c1ccccc1OC(C)=O  False
6    CN1C(=O)C2CSCN2C1=S (stereo not drawn)  False

Q: Tell me the recorded outcome of this test for `[C-]#[N+]N=P(c1ccccc1)(c1ccccc1)c1ccccc1` .
Ans: False

Q: Tell me the recorded outcome of this test for `O=c1oc2ccccc2cc1-n1nnc2cc([N+](=O)[O-])ccc21` .
Ans: False

Q: Tell me the recorded outcome of this test for `COc1ccc(N=C2c3cc([N+](=O)[O-])ccc3-c3c2cccc3[N+](=O)[O-])cc1` .
Ans: False

Q: Tell me the recorded outcome of this test for `Cc1ccc(S(=O)(=O)OC(c2ccccc2)c2ccccc2)cc1` .
Ans: False

Q: Tell me the recorded outcome of this test for `CC/C(=N/NC(=O)c1ccccc1)c1ccccc1` .
Ans: False

Q: Tell me the recorded outcome of this test for `CCCc1cc(=O)n(CCCc2ccccc2)c(=O)[nH]1` .
Ans: False

Q: Tell me the recorded outcome of this test for `Cc1cc(Cl)c2ccc(Cl)c(C)c2n1` .
Ans: False

Q: Tell me the recorded outcome of this test for `CCOCCOC(=O)c1ccc(C(N)=NC)cc1` .
Ans: False

Q: Tell me the recorded outcome of this test for `COC(CN1C=C(Sc2ccccc2)CC1)OC` .
Ans: False

Q: Tell me the recorded outcome of this test for COc1cc2c(c([N+](=O)[O-])c1)NC(=O)CC(C)S2 (stereo not drawn) .
Ans: False

Q: Tell me the recorded outcome of this test for `CCC(C(=O)O)(C(C)C)C(C)C` .
Ans: False

Q: Tell me the recorded outcome of this test for CCCC(=O)OC1C=C2N3C(=O)C4CC56C(=CC(OC(C)=O)C7OC75)N4C(=O)C3CC26C2OC12 (stereo not drawn) .
Ans: True

###

# assayComment: NCI Yeast Anticancer Drug Screen. Data for the rad50 strain (AID 155);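 note: 0% = growth of vehicle-only cultures of the same strain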
# testContext: S. cerevisiae rad50 strain growth inhibition; at 50.0 µM; stronger effect = higher value
The panel holds about 79,000 compounds, 15% with a hit somewhere; the sample as a whole holds those more often.
reportedMetric: growth inhibition (%)
Give just the numeric value; % need not be written.

> print(dat)
                                   compound     reportedmetric  value
1  CN(C(=O)CCC1OCCO1)c1cc([N+](=O)[O-])ccc1OCc1ccccc1  growth inhibition   22.1
2  Fc1ccc(CSc2cnnc(SCc3ccc(F)cc3)c2SCc2ccc(F)cc2)cc1  growth inhibition  -23.2
3  Cc1ccc(N=NN(C)C)cc1NC(=O)NCC(=O)OC(C)(C)C  growth inhibition    4.7
4                Clc1nncc2sc(-c3ccccc3)nc12  growth inhibition   20.9
5      CCCCCCCCCCCCCCCCCC(=O)N/N=C/c1ccccc1  growth inhibition      1

Q: Form field: reported growth inhibition of CC1(C)OC2(C)CCC1C1C2N1C(=O)Nc1cccc(Cl)c1 (configuration not stated)
Ans: -4.05

Q: Form field: reported growth inhibition of COc1cc(C2C(Cl)C(=O)N2NC(=O)c2ccc(NC(C)=O)cc2)cc(Br)c1O (configuration not stated)
Ans: -0.25

Q: Form field: reported growth inhibition of `O=C(CCl)Nc1cc(Cl)c(Cl)cc1Cl`
Ans: 32.4

Q: Form field: reported growth inhibition of `CCOC(=O)/C=C(\C)NC`
Ans: -27.5

Q: Form field: reported growth inhibition of `O=c1c2ccccc2nc(-c2ccccc2)n1/N=C/c1cccnc1`
Ans: 0.9

###

growth inhibition overview
# assayComment: NCI Yeast Anticancer Drug Screen. Data for the sgs1 mgt1 strain (AID 161);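 note: 0% = growth of cultures given vehicle only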
# testContext: S. cerevisiae sgs1 mgt1 strain, at 50.0 µM, stronger effect = higher value
The panel holds about 79,000 compounds, 15% with a hit somewhere; the sample as a whole holds those more often.
Give just the numeric value; % need not be written.

> print(dat)
                                   compound     reportedmetric  value
1  O=C1C2CCCC2C1(c1ccccc1)c1ccccc1 (stereo not given)  growth inhibition   64.2
2  CCCCCCCCC(O)C(O)CCCCCCCCOC(=O)CCCCCCCCCCC(O)CCCCCC (stereo not given)  growth inhibition  -1.55
3                       CC(C)=CCC/C(C)=C/CN  growth inhibition   20.4
4  O=C([O-])c1cc(I)cc(I)c1[OH2+].O=C([O-])c1cc(I)cc(I)c1[OH2+].[Mn+2]  growth inhibition   -6.2

Q: Form field: reported growth inhibition of `S=C(Nc1ccccc1)N1N=C2c3ccccc3CC[C@H]2[C@@H]1c1ccccc1`
Ans: -37.5

###

growth inhibition overview
# assayComment: NCI Yeast Anticancer Drug Screen. Data for the mec2-1 strain (AID 157)
# testContext: S. cerevisiae mec2-1 strain, at 50.0 µM, stronger effect = higher value
Compounds without any hit were thinned out: in the full panel of roughly 79,000, 15% have a hit. Active and inactive are the calls of the source. No stated cut-off is given here; in the data, active means growth inhibition above about 70%; inactive means the rest.

Here are 10 compounds together with their reported answers.
> print(dat)
                                    compound     reportedmetric              value
 1  CC1=C2CC/C(C)=C/CCC3(C)OC3CC/C(C)=C/C2OC1=O (stereo not given)  growth inhibition  -21.9% (inactive)
 2  CCCCCCCCCC(CC(OC)OCC)OC (stereo not given)  growth inhibition   4.25% (inactive)
 3  CCOP(=O)(O)C1CC2C3CC=C4CC(O)CCC4(C)C3CCC2(C)C1C(C)=O (stereo not given)  growth inhibition  -3.25% (inactive)
 4  CN(C)CCNC(=O)c1cccc2c1Oc1cccc([N+](=O)[O-])c1O2  growth inhibition  -14.1% (inactive)
 5             Cc1ccc(CSC(=S)NNc2ccccc2)cc1C  growth inhibition  -44.3% (inactive)
 6  CC(=O)OCCC(OC(C)=O)c1ccccn1 (stereo not given)  growth inhibition  -13.1% (inactive)
 7         Cc1cc(C)c(S(=O)(=O)c2cccs2)c(C)c1  growth inhibition  -10.2% (inactive)
 8  CC1(C)OC2C(O1)[C@H]1OC(C(Cl)(Cl)Cl)=N[C@H]1C(I)[C@H]2N1C(=O)c2ccccc2C1=O (stereo not given in full)  growth inhibition  -45.9% (inactive)
 9       c1ccc(-c2cnn3c(-c4ccccc4)cnnc23)cc1  growth inhibition   -8.1% (inactive)
10  COc1ccccc1NC(=O)CC(=O)N1N=C(N(c2ccccc2)c2ccccc2)CC1c1ccccc1 (stereo not given)  growth inhibition   -1.1% (inactive)

Q: Form field: reported growth inhibition of `C/C(=C1/CCOC1=O)c1cccc(/C(C)=C2\CCOC2=O)c1`
Ans: 3.55% (inactive)

Q: Form field: reported growth inhibition of `COc1ccc(C2CC(=O)N(c3ncccc3C)C(=O)C2)cc1`
Ans: 6.9% (inactive)

Q: Form field: reported growth inhibition of `Cn1c(=O)c2c(nc(CCC(N)=O)n2C)n(C)c1=O`
Ans: -20.9% (inactive)

Q: Form field: reported growth inhibition of `O=C(CCCN1CCC(O)(c2ccc(Cl)cc2)CC1)c1ccc(N2CCC(O)CC2)cc1`
Ans: -2.05% (inactive)
